experiment: Phase 1 single ascending dose (SAD)/food-effect plasma pharmacokinetics; assay type: in vivo, human; details: human, plasma, oral, 10 mg, single 10 mg, fasted, Day 1; n = 5; read-out: t1/2 (mean) (converted)
Observation type: half-life (h)
Numeric answer only, unit h assumed.

Short answer for `CC(C)(C)Oc1cc(CCC(C)(C)N2Cc3ccc(S(C)(=O)=O)cc3C2)ccc1O` : half-life was 12

---

test: Phase 1 multiple ascending dose (MAD) plasma pharmacokinetics; format: in vivo, human; details: human, plasma, oral, 560 mg, 560 mg QD, Day 3, age up to 64 years; n = 2; over max 24 hours post dose; read-out: t1/2 (mean) (converted)
Observation type: half-life
Enter the number, and then the unit.

Form: molecule = CC(C)(C)Oc1cc(CCC(C)(C)N2Cc3ccc(S(C)(=O)=O)cc3C2)ccc1O [CT1812] ; half-life = 8.56 h
